- study-system: full-length beta-catenin (Axin site) (Homo sapiens, UniProt P35222)
- Construct: 15 nM full-length beta-catenin, 20 nM FITC labeled peptide in buffer
- Sequence (P35222 whole entry): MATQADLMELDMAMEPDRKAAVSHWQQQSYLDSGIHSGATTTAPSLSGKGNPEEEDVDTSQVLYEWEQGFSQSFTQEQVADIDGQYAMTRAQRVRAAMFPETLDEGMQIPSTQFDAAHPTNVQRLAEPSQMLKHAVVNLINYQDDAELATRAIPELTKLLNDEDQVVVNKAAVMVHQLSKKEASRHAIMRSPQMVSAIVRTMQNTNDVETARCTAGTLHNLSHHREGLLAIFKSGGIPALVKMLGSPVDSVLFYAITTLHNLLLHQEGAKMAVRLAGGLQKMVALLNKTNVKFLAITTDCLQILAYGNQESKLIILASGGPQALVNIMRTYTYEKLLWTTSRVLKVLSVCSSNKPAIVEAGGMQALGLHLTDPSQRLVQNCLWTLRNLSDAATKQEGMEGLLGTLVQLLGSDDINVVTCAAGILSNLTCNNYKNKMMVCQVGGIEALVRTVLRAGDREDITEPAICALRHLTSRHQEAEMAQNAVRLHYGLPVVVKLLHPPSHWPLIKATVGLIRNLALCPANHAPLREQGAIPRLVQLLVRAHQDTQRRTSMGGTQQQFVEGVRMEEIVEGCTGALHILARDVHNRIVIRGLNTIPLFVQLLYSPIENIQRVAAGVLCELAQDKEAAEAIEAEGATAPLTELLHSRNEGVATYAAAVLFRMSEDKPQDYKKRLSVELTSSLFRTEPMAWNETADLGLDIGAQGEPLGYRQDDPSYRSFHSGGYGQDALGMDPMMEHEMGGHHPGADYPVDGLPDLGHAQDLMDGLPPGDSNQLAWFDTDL
- assay-protocol: Competition fluorescence polarization assay (Axin site probe)
- Type: binding
- condition-label: competition fluorescence polarization, Table 2; read-out: in vitro FP EC50
Numbered stars: 1 amine (or outer) side, 2 acyl side, 3 side chain; on linkers, the order of the positions; unused ones are H or OH. Bridge positions count the residues as written; N and C are the ends. Square brackets hold non-standard residues; d marks the D form. Peptide text beside a SMILES is read from it. dαMeDap(Me) = CN(C[C@@](C)(N[*:1])C(=O)[*:2])[*:3]; αMeDab(Me) = CN(CC[C@](C)(N[*:1])C(=O)[*:2])[*:3]; X6 = CN(CC=[*:3])CC[C@](C)(N[*:1])C(=O)[*:2]; X5 = C[C@](CCCCCC=[*:3])(N[*:1])C(=O)[*:2]; X2 = O=C(OCC=CCOC(=O)[*:2])[*:1]
List of EC50 values.

compound: CC[C@H](C)[C@@H]1NC(=O)[C@H](Cc2c[nH]cn2)NC(=O)[C@H](C)NC(=O)[C@H](CC(=O)O)NC(=O)[C@H](CC(C)C)NC(=O)[C@H]([C@@H](C)CC)NC(=O)[C@](C)(NC(=O)[C@H](C)NC(C)=O)CN(C)C(=O)OCC=CCOC(=O)N(C)CC[C@@](C)(C(=O)N[C@@H](CCCNC(=N)N)C(=O)N[C@H](C(=O)N[C@@H](Cc2c[nH]c3ccccc23)C(N)=O)C(C)C)NC1=O [FP0601c, Ac-A-ME-I-L-D-A-H-I-MF-R-V-W-NH2] (Ac-A[dαMeDap(Me)]ILDAHI[αMeDab(Me)]RVW-NH2; linker 2-9 via X2)
EC50: < 0.1 µM

**Query** Which EC50 is reported for this compound? CC[C@H](C)[C@@H]1NC(=O)[C@H](Cc2c[nH]cn2)NC(=O)[C@H](C)NC(=O)[C@H](CC(=O)O)NC(=O)[C@H](CC(C)C)NC(=O)[C@H]([C@@H](C)CC)NC(=O)[C@](C)(NC(=O)[C@H](C)NC(C)=O)CCCCCC=CCN(C)CC[C@@](C)(C(=O)N[C@@H](CCCNC(=N)N)C(=O)N[C@H](C(=O)N[C@@H](Cc2c[nH]c3ccccc23)C(N)=O)C(C)C)NC1=O [FP0503a, Ac-A-R7-I-L-D-A-H-I-MF-R-V-W-NH2] (Ac-A[X5]ILDAHI[X6]RVW-NH2; staple 2-9)
**Result** 0.1 to 0.5 µM

**Query** Request: CC[C@H](C)[C@@H]1NC(=O)[C@@](C)(NC(=O)[C@H](CCC(N)=O)NC(=O)[C@@H]2CCCN2C(C)=O)CCCN(C)C(=O)OCC=CCCC[C@@](C)(C(=O)N[C@@H](Cc2c[nH]cn2)C(=O)N[C@H](C(=O)N[C@@H](CCCNC(=N)N)C(=O)N[C@@H](CCCNC(=N)N)C(=O)N[C@H](C(=O)N[C@@H](Cc2c[nH]c3ccccc23)C(=O)N[C@@H](CCCNC(=N)N)C(N)=O)C(C)C)C(C)C)NC(=O)[C@H](CC(=O)O)NC(=O)[C@H](CC(C)C)NC1=O (single isomer, unassigned) [FP0780c, Ac-P-Q-MH-I-L-D-S5-H-V-R-R-V-W-R-NH2]
**Result** 0.5 to 5 µM

**Query** Request: CC[C@H](C)[C@@H]1NC(=O)[C@H](Cc2c[nH]cn2)NC(=O)C(C)(C)NC(=O)[C@H](CC(=O)O)NC(=O)[C@H](CC(C)C)NC(=O)[C@H]([C@@H](C)CC)NC(=O)[C@](C)(NC(=O)[C@H](C)NC(C)=O)CCCCCCC=CCOC(=O)N2CC[C@@](C(=O)N[C@@H](CCCNC(=N)N)C(=O)N[C@H](C(=O)N[C@@H](Cc3c[nH]c4ccccc34)C(N)=O)C(C)C)(C2)NC1=O [FP0645c, Ac-A-R8-I-L-D-Aib-H-I-MB-R-V-W-NH2]
**Result** < 0.1 µM
